B1: PRAME (parent)
chain: KKLKIFAMPMQDIKMILKMVQLDS

- Variants of: B1
- Test: protein stability index of a GFP-peptide fusion (GPS, HEK-293T) (PSI 1-6); higher = more stable;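 further: lentivirally expressed fusions sorted by FACS into six bins by GFP to DsRed ratio, PSI derived from sequencing read proportions per bin multiplied by bin number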
- Condition: c terminus: a fixed tail appended
Measurement Label: protein stability index
No unit in the answer, only the number.

Solved cases below.
>  <Variant Notation>
I16W

>  <Measurement Label>
protein stability index

>  <Readout Value>
2.79

$$$$
>  <Variant Notation>
K4W

>  <Measurement Label>
protein stability index

>  <Readout Value>
2.87

$$$$
>  <Variant Notation>
D12Y

>  <Measurement Label>
protein stability index

>  <Readout Value>
3.17

$$$$
>  <Variant Notation>
D12W

>  <Measurement Label>
protein stability index

>  <Readout Value>
3.37

$$$$
>  <Variant Notation>
K4D

>  <Measurement Label>
protein stability index

>  <Readout Value>
1.92

$$$$

q: Need protein stability index of "K18A" , thanks.
a: 3.37

q: Need protein stability index of "D12T" , thanks.
a: 3.29
